Numbers sourced from PubChem BioAssay AID1159606.

Test: inhibitors of TWEAK-Fn14 signaling, primary screen, luciferase reporter cells, uHTS (AID 1159606)
Conditions: TWEAK-stimulated Fn14 reporter cells, luciferase luminescence, 8 h; at 10 µM
In all, about 360,000 compounds went through this assay and about 7,300 (2%) were called active. Rule as the data show it: active = inhibition above about 50%; inactive = the rest. Only a selection was taken, and actives are over-represented in it overall.
Answer with one of the outcomes given here: active, inactive

Reference set, count: 3
O=c1c2ccccc2ncn1CCc1ccncc1 ... inactive
CCC(Sc1nncn1C)C(=O)Nc1nnc(-c2ccc(Cl)cc2)s1 (stereo unspecified) ... inactive
CNC[C@H]1OCc2cnnn2CCCC(=O)N([C@H](C)CO)C[C@@H]1C ... inactive

Qu. Test call, this compound: CSC1=NN(c2ccccc2)CN(c2ccccc2)N1C
Ans. inactive

Qu. Entry O=c1cc(CO)oc(C(Nc2cccc(C(F)(F)F)c2)c2ccccn2)c1O (stereo unspecified) : call = ?
Ans. inactive

Qu. Could you please tell me the result logged for COc1ccc(-c2ccc3[nH]c4c(c3c2)CCN2C[C@H]3[C@H](C)ON(C)[C@H]3C[C@@H]42)cc1 in this assay?
Ans. active

* * *

Test: inhibitors of TWEAK-Fn14 signaling, primary screen, luciferase reporter cells, uHTS (AID 1159606)
Settings: TWEAK-stimulated Fn14 reporter cells, luciferase luminescence, 8 h; at 10 µM; stronger effect = higher value
The whole screen tested about 360,000 compounds, of which about 7,300 (2%) were called active. What follows is part of a selection rich in actives, with near analogues and random picks from the rest.
Measurement Name: inhibition (%)
Express it in %; write the number only.

Use the examples below as a reference point.
COc1ccc(/C=C/c2noc(-c3ccccc3OC(C)=O)n2)cc1 ... 48.5
CS(=O)(=O)N(CC(=O)N/N=C/c1ccccn1)c1ccc(Oc2ccccc2)cc1 ... 4.09
COc1ccc(-c2noc(CNC(=O)C(C)Oc3ccccc3)n2)cc1 (stereo not given) ... -2.29
CCOC(=O)c1cc(-c2sc(NC(=O)c3ccccc3)nc2C)n(CCO)n1 ... -0.09
O=C1C(Sc2cccc(F)c2)=C[C@@]2(O)CC[C@@H](O)[C@]1(Sc1cccc(F)c1)[C@H]2O ... 31.5
O=C(O)CC(Cn1cnnn1)c1ccccc1 (stereo not given) ... 0.41
O=C(OCC(=O)N1CCOCC1)c1ccc(N2CCOCC2)c([N+](=O)[O-])c1 ... -16.3
CCCc1cc(=O)oc2c(C)c(OC(C)C(=O)NCC(O)c3ccccc3)ccc12 (stereo not given) ... -28.2

Qu. Given the entry C=CCn1nc(C(=O)OCC)cc1-c1sc(NC(=O)c2ccccc2)nc1C , report its measured inhibition.
Ans. 32.2

Qu. Requested read-out: inhibition. Entry: CCOC(=O)c1cc(-c2sc(NC(=O)c3ccccc3)nc2C)n(Cc2ccccc2)n1
Ans. 54.7

* * *

Item-by-item account of inhibition
Test: inhibitors of TWEAK-Fn14 signaling, primary screen, luciferase reporter cells, uHTS (AID 1159606)
Settings: TWEAK-stimulated Fn14 reporter cells, luciferase luminescence, 8 h; at 10 µM; stronger effect = higher value
The campaign covered roughly 360,000 compounds. About 7,300 (2%) were called active. The entries come from a sample that favours actives as a whole.
The response must be a number in % with no trailing unit.

Answered examples (4):
Cc1cccc(NC(=S)NCCc2ccc(F)cc2)c1C ... 3.93
Cc1cccc(NC(=S)NCCc2ccc(Cl)cc2)c1C ... 72
Cc1ccc2nc(NC(=O)C3CCN(S(=O)(=O)c4ccc5c(c4)oc(=O)n5C)CC3)sc2c1 ... 61.3
Cn1c(=O)oc2cc(S(=O)(=O)N3CCC(C(=O)Nc4ccc(OC(F)(F)F)cc4)CC3)ccc21 ... -4.22

Qu. # input compound: COc1ccc(C(=O)N2CCCCC2c2cc(C(=O)Nc3ccccc3)no2)cc1 (stereo not given) ; wanted: its inhibition
Ans. -7.61

Qu. Fill in: inhibition of CC1CCCN(c2ccc(C(=O)NCCc3ccccc3)cn2)C1 (stereo not given) is ___
Ans. 6.92

Qu. Given O=C(NC1CCCCC1)n1c(=O)oc2cc(S(=O)(=O)N3CCCCC3)ccc21 , state its recorded inhibition.
Ans. -2.85
